- System: GM3
- ASSAY_TEXT: GM3 Elisa assay
- Format: cell-based
- STATED_CONDITIONS: Table 3 (title: IC 50 Values); read-out: IC50_uM_Mean
OBSERVATION_TYPE: IC50

>>> print(df.to_string())
                                   compound       test_result
0  CCCCCCCC(=O)N[C@H](CN1CCC[C@@H]1COC)[C@@H](O)c1ccc2c(c1)OCCO2  3000 to 10000 nM
1  CCCCCCCC(=O)N[C@H](CN1CCCC1)[C@@H](O)c1ccc(OC(F)(F)F)cc1    100 to 1000 nM
2  O=C(CCCCCCOCC(F)(F)F)N[C@H](CN1CCCC1)[C@@H](O)c1ccc2c(c1)OCCO2    100 to 1000 nM
3  COc1cc([C@H](O)[C@@H](CN2CCCC2)NC(=O)CCCCCC(C)=O)cc(OC)c1OC  3000 to 10000 nM
